System: HL-60
Test: Cytotoxicity against Homo sapiens (human) HL60 cells assessed as reduction in cell survival fraction after 48 hr by MTT assay
Assay type: functional, cell-based
Conditions: HL-60, 48 h
pIC50: −log10 of the molar value. Where a name gives a salt, the structure may show the parent alone.

# COMPOUND, TARGET_OR_SYSTEM, INEQUALITY_SYMBOL, pIC50
measured = [
    ("Cc1cc2oc(N)c(/C=N/NCCO)c(=O)c2cc1C", "HL-60", "=", 4.63),
    ("CC(=O)CC(c1ccccc1)c1c(O)c2ccccc2oc1=O (centres undefined)", "HL-60", "=", 3.31),
    ("O=c1c(/C=N/Nc2cc(Cl)ccc2Cl)coc2ccccc12", "HL-60", "=", 3.58),
    ("COc1cccc2c1C(=O)c1c(O)c3c(c(O)c1C2=O)C[C@@](O)(C(=O)CO)C[C@@H]3O[C@H]1C[C@H](N)[C@H](O)[C@H](C)O1 [DOXORUBICIN HYDROCHLORIDE]", "HL-60", "=", 7.40),
    ("COC(=O)N/N=C/c1coc2ccccc2c1=O", "HL-60", "=", 3.43),
    ("COC(=O)N/N=C/c1c(N)oc2ccccc2c1=O", "HL-60", "=", 3.33),
    ("Nc1oc2ccc(Cl)cc2c(=O)c1/C=N/NCCO", "HL-60", "=", 5.18),
    ("CCOP(=S)(OCC)N(C)/N=C/c1c(O)c2ccccc2oc1=O", "HL-60", "=", 4.06),
    ("Nc1oc2ccccc2c(=O)c1/C=N/NCCO", "HL-60", "=", 4.31),
    ("Nc1oc2ccccc2c(=O)c1/C=N/Nc1cc(Cl)ccc1Cl", "HL-60", "<", 3.00),
    ("Nc1oc2ccccc2c(=O)c1/C=N/Nc1ccc(C(=O)O)cc1", "HL-60", "=", 3.03),
    ("COP(=S)(OC)N(C)/N=C/c1coc2ccccc2c1=O", "HL-60", "=", 4.46),
    ("COP(=S)(OC)N(C)/N=C/c1c(O)c2ccccc2oc1=O", "HL-60", "=", 4.21),
    ("Nc1oc2ccccc2c(=O)c1/C=N/N=C(c1ccccc1)c1ccccc1", "HL-60", "=", 4.25),
]
